# assay_explanation: Plasma pharmacokinetics of lorlatinib at steady state (LC-MS/MS, non-compartmental analysis)
# Format: in vivo, human
# condition_parameters: human, plasma, oral, 75 mg/m2, Cycle 1 Day 15; Cohort A1; 75 mg/m2 per dose; individual patients; read-out: Cmax
parameter_measured: Cmax (ng/mL)
Kindly provide the numeric value in ng/mL only, without the unit symbol.

According to the records, this compound C[C@H]1Oc2cc(cnc2N)-c2c(nn(C)c2C#N)CN(C)C(=O)c2ccc(F)cc21 [Lorlatinib] displays Cmax of 659

---

# assay_explanation: Plasma pharmacokinetics of lorlatinib at steady state (LC-MS/MS, non-compartmental analysis)
# Assay type: in vivo, human
# condition_parameters: human, plasma, oral, 75 mg/m2, Cohort A1, 75 mg/m2 per dose, C1D15, Geometric Mean, N 3; read-out: Cmax
parameter_measured: Cmax (ng/mL)
Your answer should be a plain number; it is taken to be in ng/mL.

Item: C[C@H]1Oc2cc(cnc2N)-c2c(nn(C)c2C#N)CN(C)C(=O)c2ccc(F)cc21 [Lorlatinib] | Cmax: 645

---

# assay_explanation: Plasma pharmacokinetics of lorlatinib at steady state (LC-MS/MS, non-compartmental analysis)
# Type: in vivo, human
# condition_parameters: Cycle 1 Day 1; Cohort A1; 95 mg/m2 per dose; individual patients
parameter_measured: Tlast (h)
Report as a plain number; the unit h is understood.

Notebook: C[C@H]1Oc2cc(cnc2N)-c2c(nn(C)c2C#N)CN(C)C(=O)c2ccc(F)cc21 [Lorlatinib] , Tlast read as 24

---

# assay_explanation: Plasma pharmacokinetics of lorlatinib at steady state (LC-MS/MS, non-compartmental analysis)
# Format: in vivo, human
# condition_parameters: human, plasma, oral, 75 mg/m2, Cohort A1, 75 mg/m2 per dose, C1D15, Geometric Mean, N 3; read-out: AUC_TAU
parameter_measured: AUC (ng·h/mL)
Numeric only. Scale: ng·h/mL

The reported AUC of the molecule C[C@H]1Oc2cc(cnc2N)-c2c(nn(C)c2C#N)CN(C)C(=O)c2ccc(F)cc21 was 4150

---

# assay_explanation: Plasma pharmacokinetics of lorlatinib at steady state (LC-MS/MS, non-compartmental analysis)
# Format: in vivo, human
# condition_parameters: human, plasma, oral, 95 mg/m2, Cycle 1 Day 15, Cohort B2, 95 mg/m2 per dose; read-out: AUC_TAU
# Source text: Lorlatinib was isolated from human plasma by a liquid-iquid extraction procedure. […] A linear-log trapezoidal method was used [NT] A best-fit method was used to estimate terminal elimination and to extrapolate any plasma concentration versus time profiles to compute [NT].
parameter_measured: AUC (ng·h/mL)
Enter your answer as a number in ng·h/mL; do not include the unit.

Entry C[C@H]1Oc2cc(cnc2N)-c2c(nn(C)c2C#N)CN(C)C(=O)c2ccc(F)cc21 ; AUC = 8100

---

# assay_explanation: Plasma pharmacokinetics of lorlatinib at steady state (LC-MS/MS, non-compartmental analysis)
# Assay type: in vivo, human
# condition_parameters: Cycle 1 Day 1; patient N0773; Cohort B2; 115 mg/m2 per dose; Dose 75; unit assumed
parameter_measured: Tlag (h)
# output: bare number, implied unit h

Noted for C[C@H]1Oc2cc(cnc2N)-c2c(nn(C)c2C#N)CN(C)C(=O)c2ccc(F)cc21 : its Tlag reads 0

---

# assay_explanation: Plasma pharmacokinetics of lorlatinib at steady state (LC-MS/MS, non-compartmental analysis)
# Assay type: in vivo, human
# condition_parameters: human, plasma, oral, 150 mg, Cycle 1 Day 1; Cohort A2; 150 mg per dose; individual patients; read-out: Tmax
parameter_measured: Tmax

Tmax recorded for this compound, C[C@H]1Oc2cc(cnc2N)-c2c(nn(C)c2C#N)CN(C)C(=O)c2ccc(F)cc21 , is 1 h

---

# assay_explanation: Plasma pharmacokinetics of lorlatinib at steady state (LC-MS/MS, non-compartmental analysis)
# Type: in vivo, human
# condition_parameters: Cycle 1 Day 15; Cohort A1; 115 mg/m2 per dose; individual patients; unit assumed
parameter_measured: Tlag (h)
Just the number please, in h, no unit attached.

// recorded Tlag for C[C@H]1Oc2cc(cnc2N)-c2c(nn(C)c2C#N)CN(C)C(=O)c2ccc(F)cc21 : 0

---

# assay_explanation: Plasma pharmacokinetics of lorlatinib at steady state (LC-MS/MS, non-compartmental analysis)
# Type: in vivo, human
# condition_parameters: human, plasma, oral, 150 mg, Cohort A2, 150 mg per dose, C1D15, Median, N 10; read-out: Cmax
parameter_measured: Cmax (µg/mL)
The reply should be a number in µg/mL, with the unit left off.

For reference, reported Cmax for C[C@H]1Oc2cc(cnc2N)-c2c(nn(C)c2C#N)CN(C)C(=O)c2ccc(F)cc21 stands at 0.71

---

# assay_explanation: Plasma pharmacokinetics of lorlatinib at steady state (LC-MS/MS, non-compartmental analysis)
# Format: in vivo, human
# condition_parameters: human, in vivo, 150 mg, Cycle 1 Day 15, Cohort A2, 150 mg per dose; read-out: AUC_TAU
parameter_measured: AUC

The compound identified as C[C@H]1Oc2cc(cnc2N)-c2c(nn(C)c2C#N)CN(C)C(=O)c2ccc(F)cc21 registered its AUC at 8300 ng·h/mL

---

# assay_explanation: Plasma pharmacokinetics of lorlatinib at steady state (LC-MS/MS, non-compartmental analysis)
# Format: in vivo, human
# condition_parameters: Cycle 1 Day 15; Cohort A1; 75 mg/m2 per dose; individual patients
parameter_measured: Tlast (h)
The reply should be a number in h, with the unit left off.

For C[C@H]1Oc2cc(cnc2N)-c2c(nn(C)c2C#N)CN(C)C(=O)c2ccc(F)cc21 the molecule record lists Tlast as 24

---

# assay_explanation: Plasma pharmacokinetics of lorlatinib at steady state (LC-MS/MS, non-compartmental analysis)
# Format: in vivo, human
# condition_parameters: human, plasma, oral, 45 mg/m^2, steady state (cycle 1, day 15); Cohort A1; 45 mg/m^2 QD; (CV); read-out: AUCtau
parameter_measured: AUC (ng·h/mL)
All answers are understood in ng·h/mL, so give the number only.

The reported AUC of the molecule C[C@H]1Oc2cc(cnc2N)-c2c(nn(C)c2C#N)CN(C)C(=O)c2ccc(F)cc21 was 2470

---

# assay_explanation: Plasma pharmacokinetics of lorlatinib at steady state (LC-MS/MS, non-compartmental analysis)
# Assay type: in vivo, human
# condition_parameters: human, in vivo, 115 mg/m2, Cohort A1, 115 mg/m2 per dose, C1D15, Median, N 6; read-out: Tmax
parameter_measured: Tmax (h)
The response must be a number in h with no trailing unit.

For this molecule ( C[C@H]1Oc2cc(cnc2N)-c2c(nn(C)c2C#N)CN(C)C(=O)c2ccc(F)cc21 ), measured Tmax is 1.5

---

# assay_explanation: Plasma pharmacokinetics of lorlatinib at steady state (LC-MS/MS, non-compartmental analysis)
# Assay type: in vivo, human
# condition_parameters: human, plasma, oral, 45 mg/m2, Cohort A1, 45 mg/m2 per dose, C1D15, Geometric Mean, N 3; read-out: AUC_TAU
parameter_measured: AUC (ng·h/mL)
Could you give me the number in ng·h/mL? Just the number is fine.

What the record says about C[C@H]1Oc2cc(cnc2N)-c2c(nn(C)c2C#N)CN(C)C(=O)c2ccc(F)cc21 : AUC is 2470

---

# assay_explanation: Plasma pharmacokinetics of lorlatinib at steady state (LC-MS/MS, non-compartmental analysis)
# Format: in vivo, human
# condition_parameters: human, plasma, oral, 95 mg/m2, Cohort A1, 95 mg/m2 per dose, C1D15, Geometric Mean, N 9; read-out: AUC_TAU
parameter_measured: AUC
Give the figure together with its unit, number first.

Entry under test: C[C@H]1Oc2cc(cnc2N)-c2c(nn(C)c2C#N)CN(C)C(=O)c2ccc(F)cc21 . Its AUC was 7470 ng·h/mL

---

# assay_explanation: Plasma pharmacokinetics of lorlatinib at steady state (LC-MS/MS, non-compartmental analysis)
# Assay type: in vivo, human
# condition_parameters: Cycle 1 Day 15, Cohort A2, 150 mg per dose
parameter_measured: Tlast

Measured Tlast, C[C@H]1Oc2cc(cnc2N)-c2c(nn(C)c2C#N)CN(C)C(=O)c2ccc(F)cc21 : 24 h

---

# assay_explanation: Plasma pharmacokinetics of lorlatinib at steady state (LC-MS/MS, non-compartmental analysis)
# Format: in vivo, human
# condition_parameters: Cycle 1 Day 1, Cohort B2, 95 mg/m2 per dose; unit assumed
parameter_measured: Tlag (h)
Write down the numeric answer in h and omit the unit.

Briefly, Tlag measured for C[C@H]1Oc2cc(cnc2N)-c2c(nn(C)c2C#N)CN(C)C(=O)c2ccc(F)cc21 : 0

---

# assay_explanation: Plasma pharmacokinetics of lorlatinib at steady state (LC-MS/MS, non-compartmental analysis)
# Assay type: in vivo, human
# condition_parameters: human, plasma, oral, 95 mg/m2, Cycle 1 Day 15; Cohort A1; 95 mg/m2 per dose; individual patients; read-out: MRTINF_obs
parameter_measured: MRT inf (h)
Number in h, nothing else.

Measured MRT inf of C[C@H]1Oc2cc(cnc2N)-c2c(nn(C)c2C#N)CN(C)C(=O)c2ccc(F)cc21 : 20.6
